Test system: Type IV PDE
Experiment: PDE IV inhibition: hydrolysis of [3H]-cyclic AMP by isolated Type IV PDE
Type: biochemical, bovine
Settings: adenines, Table 7; read-out: calc PDE IV IC50
Structures can show the parent of a compound that is named as a salt.
Labelling field: enter yes (1) if recorded IC50 is less than 8 µM. Enter no (0) if it equals or exceeds that cut-off.

Known results for compounds:
>  <compound>
COc1ccc(Cn2cnc(N)c3nc(C(C)C)nc2-3)cc1OCc1ccccc1

>  <assigned-category>
yes (1)

$$$$
>  <compound>
COc1ccc(Cn2cnc(N)c3nc(C(C)(C)OCc4ccccc4)nc2-3)cc1OC [Hydrochloride]

>  <assigned-category>
yes (1)

$$$$
>  <compound>
COc1ccc(Cn2cnc(N)c3ncnc2-3)cc1OC1CCCC1

>  <assigned-category>
yes (1)

$$$$
>  <compound>
CCNc1ncn(Cc2ccc(OC)c(OC3CCCCC3)c2)c2nc(C(C)C)nc1-2

>  <assigned-category>
no (0)

$$$$
>  <compound>
CCNc1nc(NCC)n(Cc2ccc(Cl)cc2)c2nc(C(C)C)nc1-2

>  <assigned-category>
no (0)

$$$$
>  <compound>
CCNc1ncn(Cc2ccc(OC)c(OC3CCC(O)C3)c2)c2nc(C(C)C)nc1-2 (centres unmarked) [3-(3-((3-hydroxy)cyclopentyloxy)-4-methoxybenzyl)-6-ethylami]

>  <assigned-category>
yes (1)

$$$$
>  <compound>
CCNc1ncn(Cc2ccc(OC)c(OC3CCCC3)c2)c2nc(C(C)(C)O)nc1-2 [3-[(3-cyclopentyloxy-4-methoxy)benzyl]-8-[(1-methyl-1-hydrox]

>  <assigned-category>
yes (1)

$$$$

Could you now consider this next compound?
[ask] Report whether reported IC50 is lower than 8 µM (strictly) for CCNc1ncn(Cc2ccc(OC)c(OCC3CCCC3)c2)c2nc(C(C)C)nc1-2
[reply] no (0)

---

System: Type IV PDE
Assay: PDE IV inhibition: hydrolysis of [3H]-cyclic AMP by isolated Type IV PDE
Assay type: biochemical, bovine
Conditions: adenines, Table 4; cyclic AMP 0.2 μM; read-out: calc PDE IV IC50
pIC50: −log10 of the molar value. Where a name gives a salt, the structure may show the parent alone.
Kindly return t if reported pIC50 is no lower than 5; return f if it is lower.

>  <compound>
CCn1cnc(NCc2ccccc2)c2nc(C(C)C)nc1-2 [hydrochloride]

>  <assigned-category>
f

$$$$
>  <compound>
CCNc1ncn(CC2CCCCC2)c2nc(C3CC3)nc1-2 [hydrochloride]

>  <assigned-category>
t

$$$$
>  <compound>
CCCCCCn1cnc(NC)c2ncnc1-2 [hydrochloride]

>  <assigned-category>
f

$$$$
>  <compound>
CCNc1ncn(Cc2ccc(Cl)cc2)c2ncnc1-2.Cl [hydrochloride]

>  <assigned-category>
f

$$$$
>  <compound>
CCNc1ncn(CC)c2nc(C(C)C)nc1-2 [hydrochloride]

>  <assigned-category>
f

$$$$

[ask] API: above_or_equal(metric=pIC50, cutoff=5) for item CCNc1ncn(CC2CC2)c2nc(C3CC3)nc1-2 [hydrochloride]
[reply] t

[ask] Quick check: does CCNc1ncn(CCC(C)C)c2nc(C3CC3)nc1-2.Cl [hydrochloride] have pIC50 greater than or equal to 5?
[reply] t

[ask] API: above_or_equal(metric=pIC50, cutoff=5) for item CCNc1ncn(CC)c2nc(C3CCCC3)nc1-2 [hydrochloride]
[reply] f

[ask] hey, is pIC50 for this one >= 5? CCCn1cnc(NCC)c2nc(C3CC3)nc1-2 [hydrochloride]
[reply] t

[ask] State whether the measured pIC50 reaches 5, counting equality as reaching it, for CCCNc1ncn(CC)c2nc(C3CC3)nc1-2 [hydrochloride]
[reply] f
